Recorded measurements of IC50, one per entry
Test system: human αVβ6 (Homo sapiens, UniProt P06756+P18564)
Sequence (P06756 31-992 limits assumed): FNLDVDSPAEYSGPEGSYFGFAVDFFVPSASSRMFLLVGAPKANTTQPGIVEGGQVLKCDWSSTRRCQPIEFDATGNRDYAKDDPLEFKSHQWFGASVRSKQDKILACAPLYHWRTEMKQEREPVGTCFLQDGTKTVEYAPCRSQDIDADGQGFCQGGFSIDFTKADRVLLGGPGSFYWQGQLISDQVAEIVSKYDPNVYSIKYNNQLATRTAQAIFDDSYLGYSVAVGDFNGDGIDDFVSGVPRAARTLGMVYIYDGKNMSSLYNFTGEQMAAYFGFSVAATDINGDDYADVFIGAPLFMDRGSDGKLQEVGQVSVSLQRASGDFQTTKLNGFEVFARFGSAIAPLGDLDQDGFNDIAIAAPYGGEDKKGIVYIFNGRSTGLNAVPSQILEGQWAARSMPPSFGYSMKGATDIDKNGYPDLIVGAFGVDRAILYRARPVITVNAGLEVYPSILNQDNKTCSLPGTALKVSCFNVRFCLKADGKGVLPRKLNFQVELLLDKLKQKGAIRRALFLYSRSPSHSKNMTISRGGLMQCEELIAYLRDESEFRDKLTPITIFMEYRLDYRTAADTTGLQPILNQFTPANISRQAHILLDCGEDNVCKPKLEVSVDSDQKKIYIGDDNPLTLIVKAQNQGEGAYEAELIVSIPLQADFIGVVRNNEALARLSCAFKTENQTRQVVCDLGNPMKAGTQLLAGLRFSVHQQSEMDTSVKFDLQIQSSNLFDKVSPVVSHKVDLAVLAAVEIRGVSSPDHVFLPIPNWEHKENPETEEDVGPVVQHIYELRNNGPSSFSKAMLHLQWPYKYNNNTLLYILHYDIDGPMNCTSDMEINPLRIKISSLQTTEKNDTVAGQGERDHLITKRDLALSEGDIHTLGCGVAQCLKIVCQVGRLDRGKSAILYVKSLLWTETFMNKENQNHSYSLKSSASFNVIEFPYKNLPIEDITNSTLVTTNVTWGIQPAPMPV
Sequence (P18564 22-707 limits assumed): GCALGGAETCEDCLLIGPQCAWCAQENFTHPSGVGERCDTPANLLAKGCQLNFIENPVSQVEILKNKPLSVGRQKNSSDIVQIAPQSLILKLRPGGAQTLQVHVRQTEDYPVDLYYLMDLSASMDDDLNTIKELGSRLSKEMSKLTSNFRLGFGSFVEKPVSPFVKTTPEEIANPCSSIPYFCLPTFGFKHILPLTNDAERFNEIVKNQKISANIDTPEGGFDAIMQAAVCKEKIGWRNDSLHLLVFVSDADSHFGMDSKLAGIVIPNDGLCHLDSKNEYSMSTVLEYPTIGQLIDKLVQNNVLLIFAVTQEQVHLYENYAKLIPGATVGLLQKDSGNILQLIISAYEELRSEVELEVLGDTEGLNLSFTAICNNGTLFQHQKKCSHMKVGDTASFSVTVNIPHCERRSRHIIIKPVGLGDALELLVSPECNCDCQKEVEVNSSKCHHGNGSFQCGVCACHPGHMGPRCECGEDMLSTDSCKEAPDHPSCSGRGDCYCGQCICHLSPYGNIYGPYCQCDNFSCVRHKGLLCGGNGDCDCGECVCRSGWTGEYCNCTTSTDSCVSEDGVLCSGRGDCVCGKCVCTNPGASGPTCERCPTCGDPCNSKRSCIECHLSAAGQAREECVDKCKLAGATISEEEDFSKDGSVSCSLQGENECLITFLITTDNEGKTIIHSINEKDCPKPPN
Procedure text: human αVβ6 HTRF binding assay
Test parameters: alternatively SPA-based assay
Entry rule: numbers only, all in nM.

Below: 3 compounds and their reported IC50.
{"columns": ["Compound", "IC50 (nM)"],
 "data": [
  ["O=C(O)CC(NC(=O)[C@H]1C[C@H](CCc2ccc3c(n2)NCCC3)C1)c1cnc(C(F)(F)F)nc1 (single isomer, unassigned) [Example 193]", 5.7],
  ["COc1ccc([C@H](CC(=O)O)C2(F)CN(C(=O)CCCc3ccc4c(n3)NCCC4)C2)cc1F [Example 94]", 10],
  ["O=C(N[C@@H](CNC(=O)[C@H]1C[C@@H](CCc2ccc3c(n2)NCCC3)C1)C(=O)O)OCc1ccccc1 [Example 77]", 0.54]
]}

Attention now shifts to the item below.
Quick check: IC50 of Cc1ncc([C@H](CC(=O)O)N2CC(OCCCc3ccc4c(n3)NCCC4)C2)cn1 [example 131] ? 7.5

----------
Test system: human αVβ6 (Homo sapiens, UniProt P06756+P18564)
Construct: purchased R & D systems 3817-AV
Procedure text: human αVβ6 HTRF binding assay
Test parameters: alternatively SPA-based assay
Binary label based on IC50 with cut-off 2 nM: below gives rule met, not below gives rule not met.

Examples with answers:
{"columns": ["Compound", "Cat"],
 "data": [
  ["O=C(O)C[C@H](NC1CC2(C1)CN(CCCc1ccc3c(n1)NCCC3)C2)c1cc(Cl)cc(Cl)c1", "rule not met"],
  ["COc1ccc([C@H](CC(=O)O)N2CC(C)(CCCCc3ccc4c(n3)NCCC4)C2)cc1F", "rule met"]
]}

Record `COc1ccc([C@H](CC(=O)O)NC(=O)C2CN(CCc3ccc4c(n3)NCCC4)C2)cn1` : is its IC50 strictly below 2 nM? rule met

Record `Cc1ncc([C@H](CC(=O)O)N2CC(CCCCc3ccc4c(n3)NCCC4)C2)cn1` : is its IC50 strictly below 2 nM? rule met

Record `O=C(N[C@@H](CNC(=O)[C@H]1C[C@@H](Cc2ccc3c(n2)NCCC3)C1)C(=O)O)OCC1CCC1` : is its IC50 strictly below 2 nM? rule not met

Record `O=C(N[C@@H](COC1CN(CCCc2ccc3c(n2)NCCC3)C1)C(=O)O)OCc1ccccc1` : is its IC50 strictly below 2 nM? rule met

Record COc1ccc(C(CC(=O)O)C2CC3(C2)CN(CCc2ccc4c(n2)NCCC4)C3)cn1 (stereo not drawn) : is its IC50 strictly below 2 nM? rule not met

Record `O=C(O)C[C@H](NC(=O)[C@H]1C[C@@H](CCc2ccc3c(n2)NCCC3)C1)c1cncnc1` : is its IC50 strictly below 2 nM? rule not met

Record `O=C(O)C[C@H](NC(=O)C1CC2(C1)CN(CCCc1ccc3c(n1)NCCC3)C2)c1cc(Cl)cc(Cl)c1` : is its IC50 strictly below 2 nM? rule not met

----------
Test system: human αVβ6 (Homo sapiens, UniProt P06756+P18564)
Procedure text: human αVβ6 HTRF binding assay
Test parameters: alternatively SPA-based assay
Recorded measurements of pIC50, one per entry
The read-out pIC50 is expressed as -log10 of concentration in moles per litre.

{"columns": ["Molecule", "Reported metric", "Reported result"],
 "data": [
  ["O=C(O)C[C@H](NC(=O)C1CC2(CC(NC(=O)CCc3ccc4c(n3)NCCC4)C2)C1)c1cc(Cl)cc(Cl)c1 (stereo partly drawn) [Example 29]", "pIC50", 5.70]
]}

Quick check: pIC50 of `COc1ccc([C@H](CC(=O)O)NC2CN(CCc3ccc4c(n3)NCCC4)C2)cn1` ? 8.44

Quick check: pIC50 of `O=C(O)C[C@H](NC(=O)C1(F)CN(CCc2ccc3c(n2)NCCC3)C1)c1cnc2ccccc2c1` ? 9.21
